- tested on: Phosphatidylinositol 4,5-bisphosphate 3-kinase catalytic subunit delta isoform (Homo sapiens)
- Sequence (O00329 whole entry): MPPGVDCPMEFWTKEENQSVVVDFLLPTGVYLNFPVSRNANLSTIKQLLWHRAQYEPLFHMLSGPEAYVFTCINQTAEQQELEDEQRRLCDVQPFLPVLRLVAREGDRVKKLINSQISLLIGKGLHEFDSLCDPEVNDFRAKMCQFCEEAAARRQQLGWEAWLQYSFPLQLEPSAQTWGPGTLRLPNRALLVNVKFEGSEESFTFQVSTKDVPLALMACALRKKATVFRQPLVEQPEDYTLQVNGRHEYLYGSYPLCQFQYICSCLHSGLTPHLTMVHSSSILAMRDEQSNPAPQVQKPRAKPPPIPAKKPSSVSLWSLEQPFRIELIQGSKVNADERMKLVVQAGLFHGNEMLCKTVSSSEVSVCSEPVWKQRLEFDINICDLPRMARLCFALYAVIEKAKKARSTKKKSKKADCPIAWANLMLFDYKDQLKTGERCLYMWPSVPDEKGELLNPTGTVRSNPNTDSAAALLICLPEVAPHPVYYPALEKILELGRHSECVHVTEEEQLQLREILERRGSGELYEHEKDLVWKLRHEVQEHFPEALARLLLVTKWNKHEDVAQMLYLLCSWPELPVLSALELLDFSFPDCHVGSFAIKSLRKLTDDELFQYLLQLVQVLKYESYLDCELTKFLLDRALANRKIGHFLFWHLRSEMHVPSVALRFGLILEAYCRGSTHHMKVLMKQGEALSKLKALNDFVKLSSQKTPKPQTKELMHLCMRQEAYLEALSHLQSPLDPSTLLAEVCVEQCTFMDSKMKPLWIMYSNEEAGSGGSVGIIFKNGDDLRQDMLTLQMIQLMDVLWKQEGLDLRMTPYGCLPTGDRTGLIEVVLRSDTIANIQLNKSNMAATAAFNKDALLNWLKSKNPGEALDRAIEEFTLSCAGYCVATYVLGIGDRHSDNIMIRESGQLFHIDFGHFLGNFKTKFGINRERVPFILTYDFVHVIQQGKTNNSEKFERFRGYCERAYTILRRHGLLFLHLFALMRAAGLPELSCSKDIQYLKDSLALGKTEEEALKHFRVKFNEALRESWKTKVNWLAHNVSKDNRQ
- assay info: Inhibition of PI3Kdelta in human Ramos cells assessed as reduction in AKT phosphorylation incubated for 2 hrs by Alexa flour 488 based FACS analysis
- Assay type: cell-based
assay endpoint: IC50 (nM)
Expressed in nM, but write only the number.

Determine from records and report IC50 for CCOc1c([C@H](C)n2nc(C)c3c(N)ncnc32)cc(Cl)c(F)c1[C@@H]1CNC(=O)C1 [PARSACLISIB]
1.1

* * *

- assay info: AUC in cynomolgus monkey at 10 mg/kg, po measured for 24 hrs by LC/MS/MS analysis
- Assay type: ADME, organism-based, Macaca fascicularis
- condition info: in vivo
assay endpoint: AUC at 24 h (µM·h)
Kindly answer with a numeric value in µM·h, unit omitted.

Could you please provide reported AUC at 24 h for Cc1csc2nc([C@H](C)Nc3ncnc4[nH]cnc34)c(-c3cccc(F)c3)c(=O)n12 [DEZAPELISIB] ? Thanks!
4.9

* * *

- tested on: Phosphatidylinositol 4,5-bisphosphate 3-kinase catalytic subunit delta isoform (Homo sapiens)
- assay info: Inhibition of PI3Kdelta (unknown origin) using D-myophosphatidylinositol 4,5-bisphosphate as substrate incubated for 120 mins by [gamma-33P]-ATP based scintillation counting method
assay endpoint: IC50 (nM)
Give the value in nM but do not write nM after it.

Quote IC50 reported for CCOc1c([C@H](C)n2nc(C)c3c(N)ncnc32)cc(Cl)c(F)c1[C@@H]1CNC(=O)C1 [PARSACLISIB] please.
1.1
